A collection of sequences and their measured PBM binding z-score
System: RARg homodimer (NR concentration 270 nM)
Procedure details: PBM binding z-score (relative to random genomic background probes); higher = stronger binding; sequences stand for … in GC…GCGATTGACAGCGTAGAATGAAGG
Experimental endpoint: PBM binding z-score

[[record]]
sequence_record = "CCTACTGGGCCATTCAGAAGTCATTGATCATATG"
experimental_result = 0.226

[[record]]
sequence_record = "CCTTACGGGTCAAGGTTATAGGACGGGTGGTACG"
experimental_result = 5.12

[[record]]
sequence_record = "CCTTACGGGTCAACGTTATAGCACGGGTGGTACG"
experimental_result = 4.64

[[record]]
sequence_record = "CGCGAAAGGTCGGTTGAGGTGAGTATACGGATAA"
experimental_result = 2.61

[[record]]
sequence_record = "ATATGTAAGTTAGCTGGGGTCATTCAGACTAGGC"
experimental_result = 2.19

[[record]]
sequence_record = "CAGCCTAGGTCAGGGACAGTATAGGAGGAACGTT"
experimental_result = 3.8

[[record]]
sequence_record = "CGTCCAAGGTGAAAGGTCAGTGAAGAGATGACGG"
experimental_result = 5.76

[[record]]
sequence_record = "CCTAACGGGTCAAGGTTATAGCACGGGTGGTACG"
experimental_result = 4.4

[[record]]
sequence_record = "CCTTATGGGTCACTGACAGGTTATAGCATTTGGA"
experimental_result = 3.89

[[record]]
sequence_record = "TCTGCTAGGTCAGTTGGTCAGCTTACGAGCTGCC"
experimental_result = 3.97

[[record]]
sequence_record = "GCGACTGGGGCTTCAGCAGGTTACCATAACTTAA"
experimental_result = -0.463

[[record]]
sequence_record = "CGTCCCAGGTCAAGGTCAGTGAAAGAGACTCGAA"
experimental_result = 6.29

[[record]]
sequence_record = "TCATATAGGTCAACAGGTGAAAGTCCGTAAGTTA"
experimental_result = 6.02

[[record]]
sequence_record = "GCTTACGGGTCAAAGGCTATAGCATGAATAGAAT"
experimental_result = 4.31

[[record]]
sequence_record = "ATCTCTAGGTAACTAAGTTCAGTGAATGCCGAAC"
experimental_result = 0.956

[[record]]
sequence_record = "TCGAGTAGGTAAGGGGCATTCAGAATGGCGTCGA"
experimental_result = -0.0823

[[record]]
sequence_record = "GCTGCTACGTCAGGTTGGTCAGCTAACGGGTACG"
experimental_result = -0.278

[[record]]
sequence_record = "TCATGTAGGTAATACAGGTGAAAGTCGGCATCTA"
experimental_result = -0.0708

[[record]]
sequence_record = "AGTCATAGTTCAGGACGAGGTAACGTAAAGCACG"
experimental_result = 2.61

[[record]]
sequence_record = "TCATGTAGATCAGCAGGTTAAGAAAGCTGGCCAA"
experimental_result = -0.0942

[[record]]
sequence_record = "GCTATTAGTTGAAAGGGCCACCGAATGATTCTCG"
experimental_result = 0.583

[[record]]
sequence_record = "CCCAGCAGGCCAATCTGGGTCACTCAAGGCTTGA"
experimental_result = 1.5

[[record]]
sequence_record = "CCTTACGGGTCACTCCAGGTAATAGCATCGGAGT"
experimental_result = 4.02

[[record]]
sequence_record = "CCTGCTGGGCCAAAGGTCATTGATTCCAATGCTC"
experimental_result = 4.91

[[record]]
sequence_record = "ATATGTAGGTTATGGGGTCATTCAGTTTGCGCAT"
experimental_result = 3.67

[[record]]
sequence_record = "AGTCAAAGTTCATCTATGTAACGTAAGATATGCT"
experimental_result = 6.01


###

System: LXRb homodimer (NR concentration 270 nM)
Procedure details: PBM binding z-score (relative to random genomic background probes); higher = stronger binding; sequences stand for … in GC…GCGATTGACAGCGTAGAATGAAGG
Recorded PBM binding z-score determines the group label, using low bracket: < -0.7; middle bracket: ≥ -0.7 and < 0.5; high bracket: ≥ 0.5

[[record]]
sequence_record = "TAGCCTAGGTAAGATCGGGCCAGTATACGCTATA"
category = "low bracket"

[[record]]
sequence_record = "TCTATTAGTTTAAGGGCAACCGACGAGTCCGTTT"
category = "middle bracket"

[[record]]
sequence_record = "ATCACTAGGTAAAAGTTCAGTGAATCCCGAGGAT"
category = "high bracket"

[[record]]
sequence_record = "TTACCAAGGTGCAGGTCGTTGATCCCTCTGTAGA"
category = "middle bracket"

[[record]]
sequence_record = "TCTACTAGGTCAACGATGGTCAGCTAATCTGCTA"
category = "high bracket"

[[record]]
sequence_record = "ATCTCTAGGTAACCATGTTCAGTGAATGCCGAAC"
category = "high bracket"

[[record]]
sequence_record = "GATACCGGGTCAAGGCCAGAGTACGCGTATTGAT"
category = "low bracket"

[[record]]
sequence_record = "TTACCAAGGTGAAGGTGGTTGATCCCTCTGTAGA"
category = "low bracket"

[[record]]
sequence_record = "GGAACGAGGGCAAGTTGATACCAGAGTTTGATGG"
category = "middle bracket"

[[record]]
sequence_record = "CAAACTAGGGCAAGAGGTCAAAGTCCGCTTCCCG"
category = "high bracket"

[[record]]
sequence_record = "ATCTCGAGGTAAGACTCAGTTCAGTGAAGAACGC"
category = "middle bracket"


###

Tested on: LXRb:RXRa (NR concentration 270 nM, RXRa partner concentration 90 nM)
Procedure details: PBM binding z-score (relative to random genomic background probes); higher = stronger binding; sequences stand for … in GC…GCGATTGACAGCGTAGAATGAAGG
Would you please tag the item 1.0 when its PBM binding z-score is 2 or above, and 0.0 when it is below?

[[record]]
sequence_record = "CCTTACGGCTCACTGACAGGTTATAGCATTTGGA"
category = 0.0

[[record]]
sequence_record = "CCTTACGGGTCTCGAGGTTATAGCACGACGAGCG"
category = 0.0

[[record]]
sequence_record = "TCTGCTAGGTCAACGATGGTCGGCTAATCTGCTA"
category = 0.0

[[record]]
sequence_record = "ACTTACGGGTCAACGAGATTATAGCACGCGTATA"
category = 1.0

[[record]]
sequence_record = "GCAGACAGGTGAAACGCAGGTAACTCGGGGTGGC"
category = 0.0

[[record]]
sequence_record = "CGAACTAGGTCATCCAGGACAGTGACTACATTGA"
category = 0.0

[[record]]
sequence_record = "CCTACTGAGCCAAGGTCATTGATCAGTCAAAGCA"
category = 1.0

[[record]]
sequence_record = "CCGACTGGGGCAAAGCTTACCATACTCAGTACGA"
category = 0.0

[[record]]
sequence_record = "GCTCGGAGGACAAGGTCCGAGCTTTGTCCGTAGA"
category = 0.0

[[record]]
sequence_record = "AGACTGAGGTTACCAAAGATCAGGGAAACGCTTG"
category = 1.0

[[record]]
sequence_record = "TCATATAAGTAAAGGTGAAAGTCGAACGATATGA"
category = 0.0

[[record]]
sequence_record = "TCATATAGGTAAACAGGTGAACGTCCGTAAGTTA"
category = 0.0


###

System: PPARg DBDmut IVT, anti-PPARg (DBD mutation: PPARg1 K132A/R137A, NR concentration 270 nM)
Procedure details: PBM binding z-score (relative to random genomic background probes); higher = stronger binding; sequences stand for … in GC…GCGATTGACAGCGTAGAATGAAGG
Rule: PBM binding z-score under -0.7 gives Not satisfied, otherwise Satisfied.

[[record]]
sequence_record = "CCTTACGGGTCACGAGGTTATCGCACGACGAGCG"
category = "Satisfied"

[[record]]
sequence_record = "CAGACTAGGTCACCGGAAGGTCAAAGTCCGCATG"
category = "Satisfied"

[[record]]
sequence_record = "ACTAGCAGGACAAGGGTCACTCAAGATTAGTCCG"
category = "Satisfied"

[[record]]
sequence_record = "GCTAGTTGGTCAGTAAAAGGTCACACAACGGTCG"
category = "Satisfied"

[[record]]
sequence_record = "GCGACTGGGGCATCAGCAGGTTTCCATAACTTAA"
category = "Not satisfied"

[[record]]
sequence_record = "ATATGTAGGTTACAGCCGGGTCATTCAGGCTATG"
category = "Satisfied"

[[record]]
sequence_record = "TCTAGATGGTCACGGAGGTCACACACGACGGGTA"
category = "Satisfied"

[[record]]
sequence_record = "CGTCAAAGTTCAACTAAGGTAACGTCAAGCACGC"
category = "Satisfied"

[[record]]
sequence_record = "CCTAGCAGGCCAGGGTCACTCAGGCATTTCGCTT"
category = "Not satisfied"

